Tested Target: MerTK (Homo sapiens)
Construct: Seed HUVECs (10K cells/well) in EBM-2 complete media
Sequence (Q12866 21-999): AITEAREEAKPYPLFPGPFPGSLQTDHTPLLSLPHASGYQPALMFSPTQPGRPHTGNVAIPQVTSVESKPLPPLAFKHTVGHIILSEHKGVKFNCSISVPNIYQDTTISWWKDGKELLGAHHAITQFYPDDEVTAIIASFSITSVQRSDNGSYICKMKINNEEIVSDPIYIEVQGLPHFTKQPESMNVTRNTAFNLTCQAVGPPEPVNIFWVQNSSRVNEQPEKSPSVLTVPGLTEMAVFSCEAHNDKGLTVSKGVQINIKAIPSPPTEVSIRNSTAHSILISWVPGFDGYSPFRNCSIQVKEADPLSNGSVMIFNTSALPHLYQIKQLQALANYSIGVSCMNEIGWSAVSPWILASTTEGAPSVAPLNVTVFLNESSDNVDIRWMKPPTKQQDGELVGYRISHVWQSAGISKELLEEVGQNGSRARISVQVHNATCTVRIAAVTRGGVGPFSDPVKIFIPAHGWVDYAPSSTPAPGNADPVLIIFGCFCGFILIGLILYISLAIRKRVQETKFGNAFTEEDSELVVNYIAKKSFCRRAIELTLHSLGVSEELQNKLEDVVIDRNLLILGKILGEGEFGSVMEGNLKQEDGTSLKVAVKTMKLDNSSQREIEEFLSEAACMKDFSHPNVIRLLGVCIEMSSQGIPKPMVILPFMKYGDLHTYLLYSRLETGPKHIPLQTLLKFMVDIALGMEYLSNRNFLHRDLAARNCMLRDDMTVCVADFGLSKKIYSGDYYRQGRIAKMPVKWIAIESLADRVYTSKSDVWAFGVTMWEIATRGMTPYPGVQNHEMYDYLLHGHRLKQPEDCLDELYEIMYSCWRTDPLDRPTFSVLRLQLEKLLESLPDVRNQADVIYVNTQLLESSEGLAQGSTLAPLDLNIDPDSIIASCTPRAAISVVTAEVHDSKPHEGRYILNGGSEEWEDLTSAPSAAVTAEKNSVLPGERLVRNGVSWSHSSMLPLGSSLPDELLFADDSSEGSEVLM
Assay: PAKT HTRF-HUVEC assay (pAkt Ser473 HTRF after anti-human MerTK-XL stimulation)
Assay Setup: HUVEC cells, 1 hour compound, stimulated with anti-human MerTK-XL 1 ug/mL for 10 minutes, read-out: inhibition of MerTK
Quantity Measured: EC50 (µM)
Numeric only. Scale: µM

# count of solved cases: 5
C[C@@H]1CN(c2ccc3c(c2)c(=O)n([C@H]2CC[C@H](O)CC2)c2nc(NCC4CC4)ncc32)[C@@H](C)CN1C ... 0.0582
CCCCNc1ncc2c3ccc(N4CCN5CCC[C@H]5C4)cc3c(=O)n([C@H]3CC[C@H](O)CC3)c2n1 ... 0.021
CCCCNc1ncc2c3ccc(CN4CCN(C)CC4)cc3c(=O)n([C@H]3CC[C@H](N)C3)c2n1 ... 0.043
CN1CCN(Cc2ccc3c(c2)c(=O)n(C2CCOCC2)c2nc(NCC4CC4)ncc32)CC1 ... 1.67
CCC1(CNc2ncc3c4ccc(CN5CCOCC5)cc4c(=O)n([C@H]4CC[C@H](O)CC4)c3n2)CCC1 ... 0.697

Task: Requested field: EC50. Item: O=c1c2cc(N3CCN(C4CC4)CC3)ccc2c2cnc(NCC3CC3)nc2n1[C@H]1CC[C@H](O)CC1 [Compound 177]
Result: 0.483

Task: Requested field: EC50. Item: O=c1c2ccccc2c2cnc(NCC3CC3)nc2n1[C@H]1CC[C@H](O)CC1
Result: 0.743

Task: Requested field: EC50. Item: CCCCNc1ncc2c3ccc(N4CCN(C)CC4)cc3c(=O)n([C@H]3CC[C@@](C)(O)CC3)c2n1
Result: 0.152

Task: Requested field: EC50. Item: O=c1c2cc(N3CCC(N4CCCC4)CC3)ccc2c2cnc(NCC3CC3)nc2n1[C@H]1CC[C@H](O)CC1 [Compound 99]
Result: 0.0948

Task: Requested field: EC50. Item: O=c1c2cc(N3CCN(CC(F)F)CC3)ccc2c2cnc(NCC3CC3)nc2n1[C@H]1CC[C@H](O)CC1 [Compound 169]
Result: 0.354

Task: Requested field: EC50. Item: CN1CCN(c2ccc3c(c2)c(=O)n([C@H]2CC[C@](C)(O)CC2)c2nc(NCCC4CC4)ncc32)CC1
Result: 0.0357

Task: Requested field: EC50. Item: CCCCNc1ncc2c3ccc(CN4CCN(C)CC4)cc3c(=O)n(C3CC4(CC(O)C4)C3)c2n1 (stereo not drawn)
Result: 0.0564
